# credit: a melting point compilation (Tetko et al.)

quantity: melting point

>  <compound>
COc1ccc(N)cc1OCCN(C)C

>  <value observed>
70 to 72 °C

$$$$
>  <compound>
N#CCN1CCN(c2ncccn2)CC1

>  <value observed>
99 to 101 °C

$$$$
>  <compound>
Cn1ncc(C(=O)O)c1N

>  <value observed>
139 to 141 °C

$$$$
>  <compound>
Cc1nn(C)c2ncc(C=O)cc12

>  <value observed>
107 to 109 °C

$$$$
>  <compound>
NC1CCN(c2ccc(C(F)(F)F)cc2)C1=O (stereo unspecified)

>  <value observed>
132 to 134 °C

$$$$

If you can, please state the reported melting point value of Nc1cccc(S(=O)(=O)Nc2ccccc2Cl)c1 . 110 to 112 °C
